- experimental protocol: NCI Yeast Anticancer Drug Screen. Data for the CLN2oe strain (AID 163);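 also: 0% = growth of vehicle-only control cultures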
- condition details: S. cerevisiae CLN2oe strain, at 3.7 µM, hits give high values
Compounds without any hit were thinned out: in the full panel of roughly 79,000, 15% have a hit. Active and inactive are the calls of the source. Rule as the data show it: active = growth inhibition above about 70%; inactive = the rest.
recorded endpoint: growth inhibition

Use these answered entries as a reference point.
>>> df
                                   molecule  experimental_result
0               N#CC(=Nc1ccccc1F)Nc1ccccc1F        0% (inactive)
1  O=C1OC(C2=CC(=O)c3ccccc3C2=O)C(Cl)=C1Cl (centres undefined)      -13% (inactive)
2      O=P(NC1CCCCC1)(OCc1ccccc1)OCc1ccccc1        2% (inactive)

Next:
What does the data say about its growth inhibition? Entry: NC(=S)NC(=S)Nc1ccccc1
-22% (inactive)

* * *

- experimental protocol: NCI Yeast Anticancer Drug Screen. Data for the rad52 strain (AID 147);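 also: 0% = growth of vehicle-treated control cultures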
- condition details: S. cerevisiae rad52 mutant growth inhibition; at 100.0 µM; hits give high values
- Protocol: Growth inhibition of yeast strains with defined genetic alterations is measured as a screen for potential anti-cancer activity. Selected strains with alterations in DNA damage repair or cell cycle control were exposed to compounds and growth inhibition was measured relative to vehicle treated controls. The strain used in this assay is rad52
About 79,000 compounds went through this panel and 15% of them were active in at least one assay; those are over-represented in the sample as a whole.
recorded endpoint: growth inhibition (%)
Answers are plain numbers, in %.

Use these answered entries as a reference point.
compound	experimental result
CN(C)CCCCN1c2ccccc2Sc2ccc(N=[N+]=[N-])cc21	99
O=[N+]([O-])c1cccc2nc3ccccc3c(NCCCn3ccnc3[N+](=O)[O-])c12	97
O=[N+]([O-])c1ccc2c(c1)/C(=N/N=C1c3ccccc3Cc3ccccc31)c1cc([N+](=O)[O-])cc([N+](=O)[O-])c1-2	96
CCCCCCCCCCCC1=NCCO1	98
CCC(C)OC(=O)Nc1ccc(C)c(NC(=O)OC(C)CC)c1 (configuration not stated)	96
COc1cccc2c1C(=O)c1c(O)c3c(c(O)c1C2=O)C[C@@](O)(C(C)=O)C[C@@H]3OC1CC(OC(C)=O)C(OC(C)=O)C(C)O1 (some centres not stated)	40

Quick one: give me growth inhibition for each item below, same order please.
1. Clc1ccc2c(c1)N(CCCN1CCCC13CCCCC3)c1ccccc1S2
2. Nc1cc(N)c(N=Nc2cccc3c(S(=O)(=O)O)cccc23)cc1N=Nc1cc([N+](=O)[O-])ccc1O
3. CCC(C)NC1=NCC(C)S1 (configuration not stated)
4. c1ccc2c(c1)sc1c3cnccc3ccc21
5. CC1OC(O[C@H]2/C=C/C=C/C=C/C=C/C=C/C=C/C=C/[C@H](C)[C@@H](O)[C@@H](C)[C@H](C)OC(=O)C[C@H](O)C[C@H](O)CC[C@@H](O)[C@H](O)C[C@H](O)C[C@]3(O)C[C@H](O)[C@@H](C(=O)O)[C@H](C2)O3)C(O)C(N)C1O (some centres not stated)
6. CN1C(=O)c2ccc3ccccc3c2C1=O
7. CC(C)C(C)/C=C\C(C)C1CCC2C3=CC=C4CC(O)CCC4(C)C3CCC21C (configuration not stated)

1. -7
2. 56
3. -17
4. 86
5. 98
6. 68
7. 17

* * *

Assignment: determine reported growth inhibition for the given compounds.
- experimental protocol: NCI Yeast Anticancer Drug Screen. Data for the sgs1 strain (AID 173);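 also: 0% = growth of vehicle-only control cultures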
- condition details: S. cerevisiae sgs1 mutant, at 100.0 µM, hits give high values
This is part of a sample that, as a whole, favours compounds with a hit. Of some 79,000 tested, about 15% had one in any assay.
Give bare numbers, in %.

Use these answered entries as a reference point.
>>> print(df.to_string())
                                   compound  recorded_endpoint  experimental_result
0               C=C(Cl)COC(=O)Nc1cccc(Cl)c1  growth inhibition                   97
1  O=C(CC(=O)n1nc(-c2ccccc2)c(N=Nc2ccc(Cl)cc2)c1-c1ccccc1)Nc1cccc(Cl)c1  growth inhibition                    1
2  C=C1C(=O)OC2CC1C(OC(C)=O)C/C(C)=C/CC/C(C)=C\CCC2(C)O (centres undefined)  growth inhibition                   90
3                  Cc1ccccc1N=C(NO)c1ccccc1  growth inhibition                   98

Quick one: give me growth inhibition for each item below, same order please.
1. CN(C)c1nc(=Nc2cccc(Cl)c2)ss1
2. Cc1nc(Nc2ccccc2[N+](=O)[O-])sc1C(=O)CC(=O)C(=O)Nc1c(C(C)C)cccc1C(C)C
3. Cc1c(C(C)C)cc(OCCO)cc1C(C)C
4. O=C1OC(C2=CC(=O)c3ccccc3C2=O)C(Cl)=C1Cl (centres undefined)
5. CCOC(=O)/C(=C\c1ccc(C#N)cc1)C(C)=O

[99, 6, 45, 87, 98]

* * *

- experimental protocol: NCI Yeast Anticancer Drug Screen. Data for the rad14 strain (AID 159);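 also: 0% = growth of vehicle-treated control cultures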
- condition details: S. cerevisiae rad14 strain growth inhibition; at 11.0 µM; hits give high values
This is part of a sample that, as a whole, favours compounds with a hit. Of some 79,000 tested, about 15% had one in any assay.
Assignment: determine reported growth inhibition for the given compounds.
Answers are plain numbers, in %.

>>> df
                            compound  recorded_endpoint  experimental_result
0  CC(C)/C(Cl)=N\OC(=O)Nc1ccc(F)cc1F  growth inhibition                    9

Quick one: give me growth inhibition for each item below, same order please.
1. CN(C)CCNC(=O)c1cccc2c1Oc1c(cccc1[N+](=O)[O-])O2
2. Cc1c(-c2ccccn2)ccc2ccccc12
3. COc1c(O)c(C=O)c(Br)c(C=O)c1O
4. COc1ccc(C(NCCNC(c2ccc(OC)c(OC)c2)c2cc3c(cc2O)OCO3)c2cc3c(cc2O)OCO3)cc1OC (stereo not drawn)
5. Cc1cc(C)nc(NS(=O)(=O)c2ccc(Nc3c4ccccc4nc4c(C(=O)NCCO)cccc34)cc2)n1

[-10, 1, 11, 27, 4]

Quick one: give me growth inhibition for each item below, same order please.
1. O=C(C[n+]1ccc2ccccc2c1)c1ccc2ccccc2c1
2. O=[N+]([O-])c1ccc(N/N=C/Cc2ccccc2)c([N+](=O)[O-])c1

-36
2

* * *

- experimental protocol: NCI Yeast Anticancer Drug Screen. Data for the bub3 strain (AID 167)
- condition details: S. cerevisiae bub3 mutant strain, at 3.7 µM, hits give high values
The panel holds about 79,000 compounds, 15% with a hit somewhere; the sample as a whole holds those more often.
Assignment: determine reported growth inhibition for the given compounds.
Numbers only, in %.

Quick one: give me growth inhibition for each item below, same order please.
1. CNC(=O)OCc1c(COC(=O)NC)c(-c2ccc(Cl)cc2)n2c1CCC2
2. CCCCCCCCCCCCCCCCOP(=O)(O)OCC(N)C(=O)O (stereo not given)
3. CCC(C)(C)c1ccc(Oc2cccc(C(=O)O)c2)cc1
4. CCOc1c(N=Nc2ccccc2OC)c(C)nn1C(=S)S
5. Nc1nc2ccc(NCc3ccc(C(=O)NC(CCC(=O)O)C(=O)O)cc3)cc2c(=O)[nH]1 (stereo not given)

1: -69; 2: -29; 3: -2; 4: -1; 5: 6

* * *

- experimental protocol: NCI Yeast Anticancer Drug Screen. Data for the wt1 strain (AID 149);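 also: 0% = growth of vehicle-treated wt1 cultures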
- condition details: S. cerevisiae wt1 strain (SPY 50644) growth inhibition; at 1.2 µM; hits give high values
The panel holds about 79,000 compounds, 15% with a hit somewhere; the sample as a whole holds those more often.
Assignment: determine reported growth inhibition for the given compounds.
Answers are plain numbers, in %.

compound	recorded endpoint	experimental result
CCOC(=O)COc1c(OC)cc(C2C3=C(COC3=O)Oc3cc4c(cc32)OCO4)cc1OC (centres undefined)	growth inhibition	1

Quick one: give me growth inhibition for each item below, same order please.
1. NC1CCCCC1N.Nc1c(N=Nc2ccc(-c3ccc(N=Nc4cc(S(=O)(=O)[O-])c5ccccc5c4N)cc3)cc2)cc(S(=O)(=O)[O-])c2ccccc12.[OH3+].[OH3+].[Pt+4]
2. COc1ccc2c(c1)n([O-])c1ccccc1[n+]2=O
3. CCCCCCCCCCCC(O)S(=O)(=O)O (centres undefined)
4. C[Si](C)(C)/C=C/CCNC(C#N)c1ccccc1 (centres undefined)

1. 1
2. 0
3. -2
4. 3

Quick one: give me growth inhibition for each item below, same order please.
1. COC(=O)CC1(O)C(/C=C/c2ccccc2)C(C(=O)OC)C(=O)C(C(=O)OC)C1C(=O)OC (centres undefined)
2. Cc1c(-c2ccccn2)ccc2ccccc12
3. CC(C)(C)C1=CC(=CC=C2C=CN(CCCCCCCCCCCO)C=C2)C=C(C(C)(C)C)C1=O
4. COc1ccc(C(=O)Oc2ccccc2Br)cc1
5. O=C(O)CCCC1CCCc2c1ccc1ccccc21 (centres undefined)
6. C=C(C(=C)n1nnc(C(=O)OC)c1C(=O)OC)n1nnc(C(=O)OC)c1C(=O)OC
7. COc1ccc(/C=C/c2sc3ccccc3[n+]2CCCCI)cc1OC

1: 1; 2: -1; 3: -6; 4: -5; 5: -3; 6: -1; 7: -84

This collection of values is drawn from PubChem BioAssay (NCI).
